test: Displacement of [3H]IMI from nicotinic acetylcholine receptor in Aphis craccivora (cowpea aphid) whole body membrane after 90 min by filter binding assay
Assign pIC50 to each entry below.
Numbers only, as −log10 of the molar value.

Worked cases, answers included:
| molecular string | pIC50 |
| --- | --- |
| O=[N+]([O-])/N=C1\NCCN1Cc1cnc(Cl)s1 | 8.09 |
| C/N=C(\NCc1ccc(Cl)nc1)N[N+](=O)[O-] | 8.36 |
| O=[N+]([O-])/N=C1\NCOCN1Cc1ccc(Cl)nc1 | 7.82 |

Next item in the queue.
Qu. Could you tell me which pIC50 is on file for O=[N+]([O-])/N=C1\NCOCN1Cc1cnc(Cl)s1 ?
Ans. 7.96
